System: C. albicans SC5314
Experiment: Minimal inhibitory and fungicidal concentrations (broth microdilution, CLSI M27-A3 modified)
Assay type: cell-based
Conditions: Candida albicans, 120 h, replated on YPD agar, 5 days, 28 °C, read-out: Minimal fungicidal concentration (MFC)
METRIC: MFC (µM)
One number for each entry, in µM.

- COMPOUND: "C[C@@H]1[C@H](O)[C@@H](C)/C=C/C=C/C=C/C=C/C=C/C=C/C=C/[C@H](O[C@@H]2O[C@H](C)[C@@H](O)[C@H](N)[C@@H]2O)C[C@@H]2O[C@](O)(C[C@@H](O)C[C@@H](O)[C@H](O)CC[C@@H](O)C[C@@H](O)CC(=O)O[C@H]1C)C[C@H](O)[C@H]2C(=O)O [AMB, amphotericin B, reference compound]"
  MFC, µM: 0.5
- COMPOUND: "CCCCCCCCCOCn1cc[n+](CO[C@@H]2C[C@H](C)CC[C@H]2C(C)C)c1 [2a]"
  MFC, µM: 25
- COMPOUND: "CCCCCCCCCCn1cc[n+](CO[C@@H]2C[C@H](C)CC[C@H]2C(C)C)c1 [1b]"
  MFC, µM: 50

Which MFC is reported with C. albicans SC5314 for this entry: CCCCCCCCCn1cc[n+](CO[C@@H]2C[C@H](C)CC[C@H]2C(C)C)c1 [1a] ?
50
